HepSE_hepatomegaly for assorted compounds
# Tested on: Hepatotoxicity
Measurement name: HepSE_hepatomegaly

[[record]]
compound = "CC(C)[C@@H]1NC(=O)[C@H](CCCCN)NC(=O)[C@@H](Cc2c[nH]c3ccccc23)NC(=O)[C@H](Cc2ccc(O)cc2)NC(=O)[C@@H](NC(=O)[C@H](N)Cc2ccc3ccccc3c2)CSSC[C@@H](C(=O)N[C@H](C(N)=O)[C@@H](C)O)NC1=O [LANREOTIDE]"
measurement_name = "HepSE_hepatomegaly"
experimental_result = 1

[[record]]
compound = "C[C@]12CC[C@@H]3c4ccc(OC(=O)N(CCCl)CCCl)cc4CC[C@H]3[C@@H]1CC[C@@H]2O"
measurement_name = "HepSE_hepatomegaly"
experimental_result = 0

[[record]]
compound = "CC(=O)[C@@]1(O)CC[C@H]2[C@@H]3C[C@H](C)C4=CC(=O)C=C[C@]4(C)[C@@]3(F)[C@@H](O)C[C@@]21C"
measurement_name = "HepSE_hepatomegaly"
experimental_result = 0

[[record]]
compound = "Cc1onc(-c2ccccc2)c1C(=O)N[C@@H]1C(=O)N2[C@@H]1SC(C)(C)[C@@H]2C(=O)O"
measurement_name = "HepSE_hepatomegaly"
experimental_result = 0


====

# Tested on: Hepatotoxicity
# Experimental context: Liver
Overview of reported HepSE_liver fatty across a group of compounds:
Measurement name: HepSE_liver fatty

[[record]]
smi = "COC(=O)[C@H](c1ccccc1Cl)N1CCc2sccc2C1"
measurement_name = "HepSE_liver fatty"
experimental_result = 1

[[record]]
smi = "CN(C)CCC=C1c2ccccc2C=Cc2ccccc21"
measurement_name = "HepSE_liver fatty"
experimental_result = 0

[[record]]
smi = "CC(=O)O[C@H]1C(=O)[C@@]2(C)[C@H]([C@H](OC(=O)c3ccccc3)[C@]3(O)C[C@H](OC(=O)[C@H](O)[C@@H](NC(=O)c4ccccc4)c4ccccc4)C(C)=C1C3(C)C)[C@]1(OC(C)=O)CO[C@@H]1C[C@@H]2O"
measurement_name = "HepSE_liver fatty"
experimental_result = 0

[[record]]
smi = "CCCc1cc(=O)[nH]c(=S)[nH]1"
measurement_name = "HepSE_liver fatty"
experimental_result = 0

[[record]]
smi = "CN1C(=O)CN=C(c2ccccc2)c2cc(Cl)ccc21"
measurement_name = "HepSE_liver fatty"
experimental_result = 0

[[record]]
smi = "N[C@@H]1C[C@H]1c1ccccc1.N[C@H]1C[C@@H]1c1ccccc1"
measurement_name = "HepSE_liver fatty"
experimental_result = 0

[[record]]
smi = "CN[C@H]1CC[C@@H](c2ccc(Cl)c(Cl)c2)c2ccccc21"
measurement_name = "HepSE_liver fatty"
experimental_result = 0

[[record]]
smi = "Clc1ccc2nsnc2c1NC1=NCCN1"
measurement_name = "HepSE_liver fatty"
experimental_result = 0


====

# Test system: Hepatotoxicity
# Experimental context: Liver
HepSE_Combined Scores: recorded values
Measurement name: HepSE_Combined Scores

[[record]]
molecule = "Cc1cccc(C)c1OCC(C)N (configuration not stated) [MEXILETINE]"
experimental_result = 3

[[record]]
molecule = "OC(CCN1CCCCC1)(c1ccccc1)C1CCCCC1 (configuration not stated) [TRIHEXYPHENIDYL]"
experimental_result = 0

[[record]]
molecule = "CC(C)(C)NCC(O)c1ccc(O)c(CO)c1 (configuration not stated) [ALBUTEROL]"
experimental_result = 0

[[record]]
molecule = "NC[C@@H]1O[C@H](O[C@H]2[C@@H](O)[C@H](O[C@@H]3[C@@H](O)[C@H](N)C[C@H](N)[C@H]3O[C@H]3O[C@H](CN)[C@@H](O)[C@H](O)[C@H]3N)O[C@@H]2CO)[C@H](N)[C@@H](O)[C@@H]1O [FRAMYCETIN]"
experimental_result = 0

[[record]]
molecule = "CO[C@H]1/C=C/O[C@@]2(C)Oc3c(C)c(O)c4c(c3C2=O)C2=NC3(CCN(CC(C)C)CC3)NC2=C(NC(=O)/C(C)=C\\C=C\\[C@H](C)[C@H](O)[C@@H](C)[C@@H](O)[C@@H](C)[C@H](OC(C)=O)[C@@H]1C)C4=O [RIFABUTIN]"
experimental_result = 1

[[record]]
molecule = "CC1(C)NC(=O)N(c2ccc([N+](=O)[O-])c(C(F)(F)F)c2)C1=O [NILUTAMIDE]"
experimental_result = 1

[[record]]
molecule = "CN1CCCCC1CCN1c2ccccc2Sc2ccc([S+](C)[O-])cc21 (configuration not stated) [MESORIDAZINE]"
experimental_result = 1

[[record]]
molecule = "O=C([O-])O.[Na+] [SODIUM BICARBONATE]"
experimental_result = 0

[[record]]
molecule = "O=C(O)CN(CCN(CC(=O)O)CC(=O)O)CC(=O)O [EDETIC ACID]"
experimental_result = 0

[[record]]
molecule = "CCCCc1oc2ccccc2c1C(=O)c1cc(I)c(OCCN(CC)CC)c(I)c1 [AMIODARONE]"
experimental_result = 5

[[record]]
molecule = "Nc1nc(=O)n([C@@H]2CS[C@H](CO)O2)cc1F [EMTRICITABINE]"
experimental_result = 0

[[record]]
molecule = "CC(=O)OCC[N+](C)(C)C [ACETYLCHOLINE]"
experimental_result = 0

[[record]]
molecule = "CCCNCC(O)COc1ccccc1C(=O)CCc1ccccc1 (configuration not stated) [PROPAFENONE]"
experimental_result = 4

[[record]]
molecule = "CCOC(=O)N1CCC(=C2c3ccc(Cl)cc3CCc3cccnc32)CC1 [LORATADINE]"
experimental_result = 0

[[record]]
molecule = "Cl[C@H]1[C@H](Cl)[C@@H](Cl)[C@@H](Cl)[C@H](Cl)[C@H]1Cl [LINDANE]"
experimental_result = 0

[[record]]
molecule = "CC(C)(C(=O)c1cccnc1)c1cccnc1 [METYRAPONE]"
experimental_result = 0

[[record]]
molecule = "CN(C)CCC=C1c2ccccc2C=Cc2ccccc21 [CYCLOBENZAPRINE]"
experimental_result = 2

